Measured values drawn from ChEMBL document CHEMBL5724796 for this set.

- systemUnderTest: Tyrosine-protein kinase ABL1 (Homo sapiens) (UniProt P00519)
- Sequence (P00519 whole entry): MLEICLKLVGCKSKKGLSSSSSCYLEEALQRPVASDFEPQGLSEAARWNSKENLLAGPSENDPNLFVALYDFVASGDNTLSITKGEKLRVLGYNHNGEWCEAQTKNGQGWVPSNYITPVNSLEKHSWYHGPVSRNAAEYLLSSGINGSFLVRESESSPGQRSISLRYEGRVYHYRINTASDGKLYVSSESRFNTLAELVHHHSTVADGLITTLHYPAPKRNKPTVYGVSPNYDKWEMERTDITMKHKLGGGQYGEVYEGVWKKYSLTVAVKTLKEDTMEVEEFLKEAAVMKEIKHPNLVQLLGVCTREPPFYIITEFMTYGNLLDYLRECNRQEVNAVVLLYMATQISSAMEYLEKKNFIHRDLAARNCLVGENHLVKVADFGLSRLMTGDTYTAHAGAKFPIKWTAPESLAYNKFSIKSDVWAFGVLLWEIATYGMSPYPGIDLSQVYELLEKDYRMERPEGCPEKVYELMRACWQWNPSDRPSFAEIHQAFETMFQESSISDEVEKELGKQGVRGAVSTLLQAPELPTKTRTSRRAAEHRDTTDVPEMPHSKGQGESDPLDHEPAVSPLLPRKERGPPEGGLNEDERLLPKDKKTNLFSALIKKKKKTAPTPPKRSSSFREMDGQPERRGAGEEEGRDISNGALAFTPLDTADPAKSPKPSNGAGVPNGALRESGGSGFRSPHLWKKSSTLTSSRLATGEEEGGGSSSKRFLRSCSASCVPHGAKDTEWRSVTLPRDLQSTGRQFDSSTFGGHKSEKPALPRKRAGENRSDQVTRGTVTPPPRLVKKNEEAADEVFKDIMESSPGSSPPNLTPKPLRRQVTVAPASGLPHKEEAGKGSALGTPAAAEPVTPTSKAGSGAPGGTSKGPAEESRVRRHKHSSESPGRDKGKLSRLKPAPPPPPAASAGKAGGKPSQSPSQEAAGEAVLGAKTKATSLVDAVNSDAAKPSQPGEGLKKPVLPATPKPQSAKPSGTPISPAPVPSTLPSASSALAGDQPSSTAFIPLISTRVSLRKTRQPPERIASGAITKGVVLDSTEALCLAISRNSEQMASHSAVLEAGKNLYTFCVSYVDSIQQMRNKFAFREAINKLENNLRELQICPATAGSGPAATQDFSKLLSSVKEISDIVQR
- runConditions: Compound concentration 20.0 uM
- Description: Thermal Shift Assay. Domain: start/stop: S229-K512
assayMetric: ΔTm
Kindly report the value followed by its unit.

Summary for this molecule, CCn1ncc2c(NC3CCOCC3)c(-c3nnc(Cc4sc(C)nc4C)o3)cnc21 : ΔTm is 0.37 °C

The molecule listed as O=C(C=Cc1ccc(O)cc1)c1ccc(O)cc1O shows ΔTm equal to 6.6 °C

---

- systemUnderTest: Tyrosine-protein kinase ABL1 (Homo sapiens)
- runConditions: Compound concentration 20.0 uM
Entry flag: yes if ΔTm reaches 0.1 °C; no if it does not.

# itemSmiles, className
measured = [
    ("CN1CC[C@@H](Oc2ccc(F)c(-c3nc4c(o3)C(=O)c3ccccc3C4=O)c2Cl)C1", "no"),
    ("FC(F)(F)Cn1cc(-c2ccncc2)c(-c2ccc(OCc3ccc4ccccc4n3)cc2)n1", "yes"),
    ("Cn1c(=O)cc(N2CCC[C@@H](N)C2)n(Cc2cc(F)ccc2C#N)c1=O", "no"),
]

Then this compound:
Q: Is ΔTm for O=C(c1cc(Cc2n[nH]c(=O)c3ccccc23)ccc1F)N1CCN(C(=O)C2CC2)CC1 at or above 0.1 °C?
Ans: yes
